Tested on: HeLa
Assay: Cytotoxicity against human HeLa cells assessed as inhibition of cell proliferation after 48 hrs by MTT assay
Assay type: functional, cell-based
As shown below, each of these compounds has a reported pIC50 value.
Just so you know, pIC50 here is -log10 of the concentration in molar units; reply with that number alone.

The cases that follow already have their pIC50 on record.
SAMPLE_SMILES: CC(C)(O)CCC[C@@](C)(O)[C@H]1CC[C@]2(C)[C@@H]1[C@H](O)C[C@@H]1[C@@]3(C)CC[C@H](O)C(C)(C)[C@@H]3CC[C@]12C
OBSERVED_RESULT: 4.71

SAMPLE_SMILES: CC1(C)CCC[C@](C)([C@H]2CC[C@]3(C)[C@@H]2[C@H](O)C[C@@H]2[C@@]4(C)Cc5cnc(N)nc5C(C)(C)[C@@H]4CC[C@]23C)O1
OBSERVED_RESULT: 4.16

Kindly consider the entry below.
Task: Any idea what its pIC50 is? The compound is "CC1(C)CCC[C@](C)([C@H]2CC[C@]3(C)[C@@H]2[C@H](O)C[C@@H]2[C@@]4(C)Cc5cn[nH]c5C(C)(C)[C@@H]4CC[C@]23C)O1"
Output: 4.93
